Each entry below lists one item and its recorded Percent Effect value.
target: Tyrosyl-tRNA synthetase, putative (Trypanosoma cruzi (strain CL Brener)) (UniProt Q4DSP6)
Sequence (Q4DSP6 as listed by the source): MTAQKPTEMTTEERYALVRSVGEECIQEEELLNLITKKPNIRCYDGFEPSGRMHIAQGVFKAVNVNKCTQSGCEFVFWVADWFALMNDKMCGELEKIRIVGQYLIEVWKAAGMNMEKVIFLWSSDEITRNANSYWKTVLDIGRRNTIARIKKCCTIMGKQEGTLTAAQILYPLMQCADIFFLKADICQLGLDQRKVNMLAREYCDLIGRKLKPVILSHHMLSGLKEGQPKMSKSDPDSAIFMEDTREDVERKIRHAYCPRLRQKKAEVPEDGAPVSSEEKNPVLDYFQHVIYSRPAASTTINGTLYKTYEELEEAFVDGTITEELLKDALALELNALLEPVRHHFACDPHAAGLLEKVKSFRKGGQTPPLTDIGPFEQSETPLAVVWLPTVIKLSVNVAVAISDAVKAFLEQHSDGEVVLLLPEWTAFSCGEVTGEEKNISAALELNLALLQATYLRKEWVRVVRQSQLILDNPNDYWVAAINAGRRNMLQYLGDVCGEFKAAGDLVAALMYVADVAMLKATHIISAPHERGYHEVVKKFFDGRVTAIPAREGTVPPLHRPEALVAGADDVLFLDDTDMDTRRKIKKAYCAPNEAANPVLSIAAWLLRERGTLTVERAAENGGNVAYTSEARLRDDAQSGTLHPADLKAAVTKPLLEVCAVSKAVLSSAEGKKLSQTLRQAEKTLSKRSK
method: Trypanosoma cruzi tyrosyl tRNA synthetase (TcYRS) _High Tyrosine SOP
Type: functional
Parameters: scale not given: in the data most compounds retested in dose-response had high values
reported.conditions: 30 µM
observable: Percent Effect

1. Cc1ccoc1C(=O)N1C[C@@H]2[C@@H](C1)OCC(=O)N2Cc1cccnc1 :: -27.5%
2. O=c1nc(CNc2ccccc2)[nH]n1Cc1ccccc1 :: 9.57%
3. COCCN1CCN(C(=O)c2ccncc2F)Cc2cccnc21 :: 3.17%
4. Cn1cc(CC2CCN(C(=O)NCc3cn4ccsc4n3)C2)cn1 (stereo not drawn) :: 6.38%
5. Cc1ccc(C(CNCC2CC2)N2CCOCC2)s1 (stereo not drawn) :: 9.9%
6. COCCN1CCN(C(=O)c2cc(C(C)C)on2)[C@H]2CS(=O)(=O)C[C@H]21 :: 2.1%
7. COCC(=O)N1CCC[C@]2(C(=O)N(C)C)CN(c3ccccn3)C[C@@H]2C1 :: 6.25%
8. Cc1cnc(N)c(C(=O)C2CCN(C(=O)c3ccccc3F)CC2)c1 :: 7.45%
9. CC(=O)c1cn(CC(=O)NC(C(=O)O)C(C)C)c2ccccc12 (stereo not drawn) :: 1.64%
10. CC(C)CCN1CN=C(NS(=O)(=O)c2ccc(F)cc2)NC1 :: 5.29%
11. O=C(NC1(c2nnn(Cc3ccncc3)n2)CCCC1)c1ccccc1 :: 7.1%
12. Cc1nc(C)n(CC2CCCN(Cc3nnc(C(C)(C)C)o3)C2)n1 (stereo not drawn) :: 2.13%
13. Cc1nn(C)c(N(C)C)c1CNC1CCc2c(F)cccc21 (stereo not drawn) :: 6.37%
14. CC(O)CN1CCN(C(=O)c2cccn2Cc2ccncc2)CC1 (stereo not drawn) :: 0.493%
15. O=C(NCC1CCOCC1)[C@@H]1C[C@@H]2CCN(Cc3ccco3)C[C@H]2O1 :: 2.08%
16. COCc1cnc2n1CCN(C(=O)C1=CCCCC1)C2C (stereo not drawn) :: 3.17%
17. Cc1nc(CN2C(=O)CCC23CCN(c2ncccn2)CC3)cs1 :: 5.21%
18. CC(O)CNCc1ccc(OCc2ccc3c(c2)OCCO3)cc1 (stereo not drawn) :: 1.06%
19. c1ccc(C[C@H]2CN(Cc3nccs3)CC[C@H]2OCC2CC2)cc1 :: 3.19%
20. Cc1ccc(NC(=O)N2CCOC(C)C2)cc1Cl (stereo not drawn) :: 7.29%
21. COc1ccc(-c2nc(CN3CC(n4nc(C)cc4C)C3)no2)cc1 :: 2.15%
22. O=C1N(CCCc2ccccc2)CCCC1(O)CNCc1ccccc1 (stereo not drawn) :: 8.6%
23. c1cc2nc(C3CCN(CC4CC4)CC3)nn2cc1N1CCCC1 :: 13.5%

Values from ChEMBL document CHEMBL3988442
